# target desc: ZFPe (synthetic)
# Sequence (chain, as listed by the source): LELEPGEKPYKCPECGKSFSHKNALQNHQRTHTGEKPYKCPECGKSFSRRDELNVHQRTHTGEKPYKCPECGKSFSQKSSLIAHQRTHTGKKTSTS
# measurement description: SPR; HBS-EP; text elsewhere calls ZFPe the picomolar binder
# test context: tags: MBP fusion (pMAL); label: 5'-biotin sense strand (SPR)
property name: Kd (nM)
Answers are plain numbers, in nM.

response.value for ZFPe target oligo (dsDNA) DNA 1: AGTACTATAATGATTAGTACT DNA 2: AGTACTAATCATTATAGTACT (field: Kd) = 67.1
